molecular target: human SOS1 (nucleotide exchange of K-Ras^G12C) (Homo sapiens); assay: Biochemical assay 2: K-Ras^G12C activation assay by hSOS1 at high GTP concentration (HTRF); details: high GTP; read-out: Assay 2 (KRAS-Activation by SOS high GTP) activity expressed as IC50
1.0 if IC50 is below 0.9 µM. 0.0 if not; exact matches included in 0.0.

Prompt line: For COc1cc2nc(C)nc(NC(C)c3cccc4ccsc34)c2cc1OC (stereo not shown) , is the recorded IC50 below the cut-off of 0.9 µM?
Response line: 1.0

Prompt line: For COc1cc2nc(C)nc(N[C@@H](C)c3ccc(-c4cnc5[nH]ccc5c4)s3)c2cc1OC (racemic) , is the recorded IC50 below the cut-off of 0.9 µM?
Response line: 0.0

Prompt line: For COc1cc2nc(C)nc(N[C@H](C)c3cccc(-c4ccccc4CN)c3)c2cc1OC , is the recorded IC50 below the cut-off of 0.9 µM?
Response line: 1.0

Prompt line: For COc1cc2nc(C)nc(NC(C)c3ccc(-c4ccc(F)cc4CNCc4nccn4C)s3)c2cc1OC (stereo not shown) , is the recorded IC50 below the cut-off of 0.9 µM?
Response line: 1.0

Prompt line: For COc1cc2nc(C)nc(N[C@H](C)c3cccc(-c4cnc5n4CCC5)c3)c2cc1OC , is the recorded IC50 below the cut-off of 0.9 µM?
Response line: 1.0

Prompt line: For COc1cc2nc(C)nc(NC(C)c3cc(Br)cc4c3OCC4)c2cc1OC (stereo not shown) [Example 214] , is the recorded IC50 below the cut-off of 0.9 µM?
Response line: 0.0

Prompt line: For COc1cc2nc(C)nc(NC(C)c3ccc(-c4ccccc4CNCC(F)F)s3)c2cc1OC (stereo not shown) , is the recorded IC50 below the cut-off of 0.9 µM?
Response line: 0.0

Prompt line: For COc1cc2nc(C)nc(NC(C)c3csc(Br)c3)c2cc1OC (stereo not shown) , is the recorded IC50 below the cut-off of 0.9 µM?
Response line: 0.0

Prompt line: For CCCNC(=O)c1ccc(-c2cccc([C@@H](C)Nc3nc(C)nc4cc(OC)c(OC)cc34)c2)cc1 , is the recorded IC50 below the cut-off of 0.9 µM?
Response line: 1.0

Prompt line: For COc1cc2nc(C)nc(NC(C)c3ccc(-c4cscc4C#N)s3)c2cc1OC (stereo not shown) , is the recorded IC50 below the cut-off of 0.9 µM?
Response line: 0.0

Prompt line: For COc1cc2nc(C)nc(N[C@H](C)c3ccc(Br)cc3)c2cc1OC , is the recorded IC50 below the cut-off of 0.9 µM?
Response line: 1.0

Prompt line: For COCCNC(=O)CNCc1ccccc1-c1ccc(C(C)Nc2nc(C)nc3cc(OC)c(OC)cc23)s1 (stereo not shown) , is the recorded IC50 below the cut-off of 0.9 µM?
Response line: 1.0

Prompt line: For COc1cc2nc(C)nc(NC(C)c3ccc(-c4ccccc4[C@@H](C)NC(=O)OC(C)(C)C)s3)c2cc1OC (stereo in doubt) , is the recorded IC50 below the cut-off of 0.9 µM?
Response line: 0.0

Prompt line: For COc1cc2nc(C)nc(N[C@@H](C)c3ccc(-c4cccc(S(N)(=O)=O)c4)s3)c2cc1OC (racemic) , is the recorded IC50 below the cut-off of 0.9 µM?
Response line: 0.0

Prompt line: For COC(=O)CNCc1ccccc1-c1ccc(C(C)Nc2nc(C)nc3cc(OC)c(OC)cc23)s1 (stereo not shown) , is the recorded IC50 below the cut-off of 0.9 µM?
Response line: 1.0
